Every entry's value here was drawn from PubChem BioAssay AID849.

test system: Saccharomyces cerevisiae lifespan shortening, growth inhibition; assay: yeast lifespan shortening compounds, dose response (AID 849);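 also: yeast growth read as optical density after two days at 30 degrees C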
Active and inactive are the calls of the source. No rule for the calls is given here.
Use one of these outcomes when replying: True (active), False (inactive)

**Q:** Any idea what this test logged for `Cc1ccc(-n2c(Cl)c(Cl)nc(Cl)c2=O)cc1` ?
**A:** True

**Q:** Any idea what this test logged for `CCN1CCN(c2ncnc3c2sc(=S)n3-c2ccccc2)CC1` ?
**A:** False

***
**Q:** Any idea what this test logged for `Cn1c(N2CCOCC2)c(/C=N/OC(=O)c2ccc(F)cc2)c2ccccc21` ?
**A:** True

**Q:** Any idea what this test logged for `CCCCc1ccc(NC(=S)Nc2ccc(Nc3ccc(OC)cc3)cc2)cc1` ?
**A:** True

**Q:** Any idea what this test logged for `Cc1ccc(C(=O)O/N=C/c2c(N3CCOCC3)n(C)c3ccccc23)cc1` ?
**A:** False

**Q:** Any idea what this test logged for `CN1C(=O)/C(=N/OC(=O)c2ccccc2)c2ccccc21` ?
**A:** False

**Q:** Any idea what this test logged for OC(CNCC1CCCO1)Cn1c2ccc(Br)cc2c2cc(Br)ccc21 (centres undefined) ?
**A:** False

**Q:** Any idea what this test logged for `CCOC(=O)c1c(NC(=S)Nc2ccc(Cl)cc2)sc2c1CCN(C)C2` ?
**A:** True

**Q:** Any idea what this test logged for CC1=C(C)CC2C(=O)N(c3cccc4ccccc34)C(=O)C2C1 (centres undefined) ?
**A:** False

**Q:** Any idea what this test logged for `O=C(O)CSc1cccc[n+]1[O-]` ?
**A:** True

**Q:** Any idea what this test logged for `Cc1cccc(OCCN2CSC(=S)N(C)C2)c1` ?
**A:** True

**Q:** Any idea what this test logged for `O=C(O)c1cc2c(ccc3ccccc32)oc1=O` ?
**A:** True

**Q:** Any idea what this test logged for `O=[N+]([O-])c1ccc(Cl)c(S(=O)(=O)N2CCCCCC2)c1` ?
**A:** True

**Q:** Any idea what this test logged for `Cc1ccc(NC(=S)Nc2ccc(Cl)c(Cl)c2)c(OC(F)F)c1` ?
**A:** True

====

tested on: Saccharomyces cerevisiae lifespan shortening, growth inhibition; assay: yeast lifespan shortening compounds, dose response (AID 849);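 also: yeast growth read as optical density after two days at 30 degrees C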
Active and inactive are the calls of the source. How the calls were made is not given here.
Use one of these outcomes when replying: Yes (active), No (inactive)

Worked set:
**Q:** Any idea what this test logged for `Cc1cc2sc(C(=O)O)c(C)c2s1` ?
**A:** Yes

**Q:** Any idea what this test logged for `Cn1cccc1Cc1nnc(SCC(=O)Nc2nccs2)n1CCc1ccccc1` ?
**A:** No

**Q:** Any idea what this test logged for `Cc1ccc(-c2cc(-c3ccccc3C)[nH]n2)c(O)c1` ?
**A:** Yes

**Q:** Any idea what this test logged for Oc1c(C(Nc2nc3ccccc3s2)c2ccco2)ccc2cccnc12 (stereo not drawn) ?
**A:** No

**Q:** Any idea what this test logged for `COc1ccc(-c2cc(-c3ccccc3O)[nH]n2)cc1` ?
**A:** No

**Q:** Any idea what this test logged for `CS(=O)(=O)N1CCN(C(=O)c2ccccc2F)CC1` ?
**A:** No

***
**Q:** Any idea what this test logged for `Cc1cccc(C(=O)Oc2csc(=S)n2C(=O)c2cccc(C)c2)c1` ?
**A:** No

**Q:** Any idea what this test logged for `CC(C)(C)c1nnc(N/N=C/c2cc(Br)ccc2O)n(N)c1=O` ?
**A:** Yes
